target: GABA-A receptor; anion channel; test: Inhibition of [3H]flunitrazepam binding to GABA-A receptor of rat cortical membranes
ATTRIBUTE MEASURED: pKi
Expect pKi as a plain number equal to -log10 of the molar concentration.

O=C(Nc1ccccc1)N1Cc2c(-c3noc(C4CC4)n3)ncn2-c2ccccc21 7.80
NC(=O)N1Cc2c(-c3noc(C4CC4)n3)ncn2-c2ccccc21 8.14

API: the following record is the query input.
Look at this compound and give its reported pKi. O=C(Sc1ccccc1)N1Cc2c(-c3noc(C4CC4)n3)ncn2-c2ccccc21
7.96

----------
target: GABA-A receptor; anion channel; assay: Inhibition of [3H]flunitrazepam binding to GABA-A receptor of rat cortical membranes
ATTRIBUTE MEASURED: pKi
Expect pKi as a plain number equal to -log10 of the molar concentration.

// solved cases for pKi follow
O=C(N1CCOCC1)N1Cc2c(-c3noc(C4CC4)n3)ncn2-c2ccccc21 9.09
CC(C)c1nc(-c2ncn3c2CN(C(=O)N2CCCC2)c2ccccc2-3)no1 8.96

Look at this compound and give its reported pKi. O=C(N1CCOCC1)N1Cc2c(-c3noc(C4CC4)n3)ncn2-c2cccc(F)c21
9.32

Look at this compound and give its reported pKi. O=C(N1CCCC1)N1Cc2c(-c3noc(C4CC4)n3)ncn2-c2ccccc21
9.35

----------
# Ki listing for each entry below
biological target: GABA-A receptor; anion channel; assay: Inhibition of [3H]flunitrazepam binding to GABA-A receptor of rat cortical membranes

// solved cases for Ki follow
MOLECULE	TARGET SYSTEM	Ki
CC(C)NC(=O)N1Cc2c(-c3noc(C4CC4)n3)ncn2-c2ccccc21	GABA-A receptor; anion channel	3.4 nM
CCNC(=O)N1Cc2c(-c3noc(C4CC4)n3)ncn2-c2ccccc21	GABA-A receptor; anion channel	3.5 nM
CCc1nc(-c2ncn3c2CN(C(=O)N2CCCC2)c2ccccc2-3)no1	GABA-A receptor; anion channel	0.65 nM

Look at this molecule and give its reported Ki. CN(C)C(=O)N1c2ccccc2-n2cnc(-c3noc(C4CC4)n3)c2C1(C)C
3.1 nM

Look at this molecule and give its reported Ki. O=C(c1ccccn1)N1Cc2c(-c3noc(C4CC4)n3)ncn2-c2ccccc21
1.1 nM

----------
molecular target: GABA-A receptor; anion channel; assay: Inhibition of [3H]flunitrazepam binding to GABA-A receptor of rat cortical membranes
# Ki listing for each entry below
// note: answer is a bare numeric in nM

CN(C)C(=O)N1Cc2c(-c3noc(C4CC4)n3)ncn2-c2ccc(F)cc21 0.61
CC(C)OC(=O)N1Cc2c(-c3noc(C4CC4)n3)ncn2-c2ccccc21 1.8
CC(C)n1c(=O)c2c(-c3noc(C4CC4)n3)ncn2c2ccccc21 1.6
CC1(C)c2c(-c3noc(C4CC4)n3)ncn2-c2ccc(Cl)cc2N1C(=O)N1CCCC1 3.3
CN(C)C(=O)N1c2cc(Cl)ccc2-n2cnc(-c3noc(C4CC4)n3)c2C1(C)C 3.1

Look at this compound and give its reported Ki. CC(C)(C)c1nc(-c2ncn3c2CN(C(=O)N2CCCC2)c2ccccc2-3)no1
14.7
